Target: purified human HDAC6 (Homo sapiens)
Construct: purchased BPS Bioscience 5006
Experiment: HDAC6 Enzyme Assay
Type: biochemical
Conditions: purified human HDAC6, substrate Ac-Arg-Gly-Lys(Ac)-AMC, 1 hour at 30° C.; reported as bins
Measured IC50, listed per entry for reference.

compound	assay system	IC50
CC(NS(=O)(=O)c1ccc(C(F)(F)F)cc1)c1ccc(C(=O)NO)cc1 (stereo not shown)	purified human HDAC6 (Homo sapiens)	100 to 500 nM
CC(C)C(NC(=O)c1csc(-c2ccccc2)n1)c1ccc(C(=O)NO)cc1 (stereo not shown)	purified human HDAC6 (Homo sapiens)	< 100 nM
CCC[C@@H](NC(=O)c1sc2ccccc2c1C)c1ccc(C(=O)NO)cc1	purified human HDAC6 (Homo sapiens)	< 100 nM
Cc1cc(C)n2nc(C(=O)NC(C)c3ccc(C(=O)NO)cc3)cc2n1 (stereo not shown)	purified human HDAC6 (Homo sapiens)	< 100 nM
Cc1cccc(NC(=O)NC(C)c2ccc(C(=O)NO)cc2)c1 (stereo not shown)	purified human HDAC6 (Homo sapiens)	< 100 nM
Cc1c(C(=O)N[C@@H](c2ccc(C(=O)NO)cc2)C(F)(F)F)oc2ccccc12	purified human HDAC6 (Homo sapiens)	< 100 nM
CC(C)C(NC(=O)c1ccc(-c2ccc(F)cc2)cc1)c1ccc(C(=O)NO)cc1 (stereo not shown)	purified human HDAC6 (Homo sapiens)	< 100 nM
C[C@@H](NC(=O)C1(C)CCNCC1)c1ccc(C(=O)NO)cc1	purified human HDAC6 (Homo sapiens)	100 to 500 nM
CC(NC(=O)c1cn2cc(Cl)ccc2n1)c1ccc(C(=O)NO)cc1 (stereo not shown)	purified human HDAC6 (Homo sapiens)	< 100 nM
CC(NC(=O)c1sccc1-n1cccc1)c1ccc(C(=O)NO)cc1 (stereo not shown)	purified human HDAC6 (Homo sapiens)	< 100 nM
C[C@@H](NC(=O)c1cc2ccccc2s1)c1cccc(C(=O)NO)c1	purified human HDAC6 (Homo sapiens)	< 100 nM
CC(C)[C@@H](NC(=O)c1ccc(-c2ccccc2)cc1)c1ccc(C(=O)NO)cc1	purified human HDAC6 (Homo sapiens)	< 100 nM
CCC[C@@H](NC(=O)c1cccn1C)c1ccc(C(=O)NO)cc1	purified human HDAC6 (Homo sapiens)	< 100 nM
CC(C)C(NC(=O)C1CCCCCC1)c1ccc(C(=O)NO)cc1 (stereo not shown)	purified human HDAC6 (Homo sapiens)	100 to 500 nM
Cc1c(C(=O)N[C@@H](c2ccc(C(=O)NO)cc2)C(C)C)oc2ccccc12	purified human HDAC6 (Homo sapiens)	< 100 nM
COc1cc(C(=O)NC(C)c2ccc(C(=O)NO)cc2)ccc1F (stereo not shown)	purified human HDAC6 (Homo sapiens)	< 100 nM
CC(NC(=O)c1ccc2occc2c1)c1ccc(C(=O)NO)cc1 (stereo not shown)	purified human HDAC6 (Homo sapiens)	< 100 nM
CC(NC(=O)C(C)(C)c1ccc(Cl)cc1)c1ccc(C(=O)NO)cc1 (stereo not shown)	purified human HDAC6 (Homo sapiens)	< 100 nM
O=C(N[C@H](c1ccc(C(=O)NO)cc1)C(F)(F)F)NC12CC3CC(CC(C3)C1)C2	purified human HDAC6 (Homo sapiens)	100 to 500 nM
CC(NC(=O)Nc1cccc2ccccc12)c1ccc(C(=O)NO)cc1 (stereo not shown)	purified human HDAC6 (Homo sapiens)	< 100 nM
CC(NC(=O)c1ccc2ccccc2n1)c1ccc(C(=O)NO)cc1 (stereo not shown)	purified human HDAC6 (Homo sapiens)	< 100 nM
CC(C)[C@@H](NC(=O)c1cc2ccccc2o1)c1ccc(C(=O)NO)cc1	purified human HDAC6 (Homo sapiens)	< 100 nM
Cc1ccc(F)c(C(=O)NC(C)c2ccc(C(=O)NO)cc2)c1 (stereo not shown)	purified human HDAC6 (Homo sapiens)	< 100 nM
CC(NC(=O)c1cccc2c1OCC2)c1ccc(C(=O)NO)cc1 (stereo not shown)	purified human HDAC6 (Homo sapiens)	< 100 nM
Cc1cc(C(=O)NC(c2ccc(C(=O)NO)cc2)C(C)(C)C)c(C)[nH]1 (stereo not shown)	purified human HDAC6 (Homo sapiens)	100 to 500 nM
C[C@@H](NC(=O)Nc1c(F)cccc1F)c1ccc(C(=O)NO)cc1	purified human HDAC6 (Homo sapiens)	< 100 nM
COc1ccc(C(=O)N[C@@H](c2ccc(C(=O)NO)cc2)C(C)C)cc1	purified human HDAC6 (Homo sapiens)	< 100 nM
CC(NC(=O)c1ccccc1)c1ccc(C(=O)NO)cc1 (stereo not shown)	purified human HDAC6 (Homo sapiens)	< 100 nM

====

Biological target: purified human HDAC6 (Homo sapiens)
Construct: purchased BPS Bioscience 5006
Sequence (Q9UBN7 1-1215): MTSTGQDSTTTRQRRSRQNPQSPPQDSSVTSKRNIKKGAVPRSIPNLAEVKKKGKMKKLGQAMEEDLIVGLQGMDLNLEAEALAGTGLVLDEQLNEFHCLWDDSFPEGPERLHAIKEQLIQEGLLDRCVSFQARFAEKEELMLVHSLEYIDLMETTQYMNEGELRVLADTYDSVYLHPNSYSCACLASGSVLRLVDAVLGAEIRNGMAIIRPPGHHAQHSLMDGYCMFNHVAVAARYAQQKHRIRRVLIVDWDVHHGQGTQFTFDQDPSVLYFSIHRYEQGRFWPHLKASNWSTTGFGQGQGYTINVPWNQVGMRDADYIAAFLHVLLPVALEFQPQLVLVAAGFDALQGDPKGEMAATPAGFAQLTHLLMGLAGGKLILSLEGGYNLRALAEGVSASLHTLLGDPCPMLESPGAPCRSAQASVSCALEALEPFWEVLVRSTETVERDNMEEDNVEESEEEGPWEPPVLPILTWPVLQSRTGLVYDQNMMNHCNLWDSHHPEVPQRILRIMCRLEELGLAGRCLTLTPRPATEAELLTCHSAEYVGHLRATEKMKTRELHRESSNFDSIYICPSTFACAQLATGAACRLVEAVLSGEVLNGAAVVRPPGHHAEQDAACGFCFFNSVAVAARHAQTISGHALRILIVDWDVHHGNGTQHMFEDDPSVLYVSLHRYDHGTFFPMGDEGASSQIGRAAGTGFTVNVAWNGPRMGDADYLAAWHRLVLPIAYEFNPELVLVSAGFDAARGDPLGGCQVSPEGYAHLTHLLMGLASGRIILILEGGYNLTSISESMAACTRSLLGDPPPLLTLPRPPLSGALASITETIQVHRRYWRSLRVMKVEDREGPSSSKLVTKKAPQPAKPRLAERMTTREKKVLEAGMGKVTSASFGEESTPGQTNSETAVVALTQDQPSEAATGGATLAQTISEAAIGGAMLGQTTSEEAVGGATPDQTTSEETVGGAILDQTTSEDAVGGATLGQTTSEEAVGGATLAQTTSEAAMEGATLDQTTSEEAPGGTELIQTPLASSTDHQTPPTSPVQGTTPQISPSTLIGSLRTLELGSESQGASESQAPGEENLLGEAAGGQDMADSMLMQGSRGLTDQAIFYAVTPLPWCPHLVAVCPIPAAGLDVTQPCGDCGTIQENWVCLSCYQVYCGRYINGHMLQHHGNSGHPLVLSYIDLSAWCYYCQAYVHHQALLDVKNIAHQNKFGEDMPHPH
Experiment: HDAC6 Enzyme Assay
Format: biochemical
Conditions: purified human HDAC6, substrate Ac-Arg-Gly-Lys(Ac)-AMC, 1 hour at 30° C.; reported as bins
The compounds listed here are annotated with their IC50.

compound	IC50
CC(C)c1cc(C(=O)NC(C)c2ccc(C(=O)NO)cc2)n(C)n1 (centres unmarked)	< 100 nM
Cc1nc(C(=O)NC(c2ccc(C(=O)NO)cc2)C(C)(C)C)cs1 (centres unmarked)	100 to 500 nM
CC(NC(=O)C12CC3CC(CC(C3)C1)C2)c1ccc(C(=O)NO)cc1 (centres unmarked)	< 100 nM
CC(NC(=O)C(C)(C)C)c1ccc(C(=O)NO)cc1 (centres unmarked)	< 100 nM
Cc1c(C(=O)N[C@H](C)c2cccc(C(=O)NO)c2)sc2ccccc12	100 to 500 nM
COc1ccc(C(=O)N[C@H](C)c2cccc(C(=O)NO)c2)cc1	100 to 500 nM
Cc1nc(C(=O)NC(C)c2ccc(C(=O)NO)cc2)cs1 (centres unmarked)	< 100 nM
CC(NC(=O)Nc1cccc(C(F)(F)F)c1)c1ccc(C(=O)NO)cc1 (centres unmarked)	< 100 nM
CC(C)[C@@H](NC(=O)c1cccn1C)c1ccc(C(=O)NO)cc1	< 100 nM
CC(C)[C@@H](NC(=O)C(C)(C)C)c1ccc(C(=O)NO)cc1	< 100 nM
C[C@H](NC(=O)c1cccn1C)c1ccc(C(=O)NO)cc1	< 100 nM
CC(NC(=O)C1CCCCCC1)c1ccc(C(=O)NO)cc1 (centres unmarked)	< 100 nM
CC(C)(C)C(NC(=O)c1cscn1)c1ccc(C(=O)NO)cc1 (centres unmarked)	100 to 500 nM
Cc1ccc(C(=O)NC(C)c2ccc(C(=O)NO)cc2)s1 (centres unmarked)	< 100 nM
CC(C)Cc1cc(C(=O)NC(C)c2ccc(C(=O)NO)cc2)no1 (centres unmarked)	< 100 nM
CC(C)[C@@H](NC(=O)C12CC3CC(CC(C3)C1)C2)c1ccc(C(=O)NO)cc1	< 100 nM
CC(C)C(NC(=O)c1cc2ccccc2s1)c1ccc(C(=O)NO)cc1 (centres unmarked)	< 100 nM
CC(=O)c1cccc(NC(=O)NC(C)c2ccc(C(=O)NO)cc2)c1 (centres unmarked)	< 100 nM
CC(NS(=O)(=O)Cc1ccccc1)c1ccc(C(=O)NO)cc1 (centres unmarked)	100 to 500 nM
CC(NC(=O)Nc1ccccc1Oc1ccccc1)c1ccc(C(=O)NO)cc1 (centres unmarked)	< 100 nM
CC(NC(=O)c1csc2ccccc12)c1cccc(C(=O)NO)c1 (centres unmarked)	100 to 500 nM
C[C@@H](NC(=O)c1cc2ccccc2o1)c1cccc(C(=O)NO)c1	100 to 500 nM
CC(NC(=O)Nc1cc(Cl)cc(Cl)c1)c1ccc(C(=O)NO)cc1 (centres unmarked)	100 to 500 nM
